assay: qHTS of pediatric cancer cell lines to identify multiple opportunities for drug repurposing: Primary screen for BT-37 cells (AID 1347094); settings: BT-37 viability, CellTiter-Glo luminescence, 48 h; series mostly up to 57.3 µM
Records with an inconclusive call do not appear. Activity calls are given as the source filed them. The call rests on the fitted dose curve; in most records, active means well fitted cell-killing curve with a large enough effect; inconclusive means small, poorly fitted or top-dose-only effect; inactive means flat fitted curve, though single readings scatter.
Field 'call' accepts true for active, false for inactive

As a guide, the following entries are already answered.
CN(C)C(=S)SC(=S)N(C)C | true
O=C(OCCOCCO)c1ccccc1Nc1cccc(C(F)(F)F)c1 | false

Q: Write down the call the test reported for this compound. Item: COc1cc(C=C2CCC/C(=C\c3ccc(O)c(OC)c3)C2=O)ccc1O
Result: true

Q: Which outcome was assigned to CCCCC(CC)CN=C(N)NC(N)=NCCCCCCN=C(N)NC(N)=NCC(CC)CCCC (configuration not stated) in this test?
Result: true

Q: Record request — test call for CC(C)(CO)[C@@H](O)C(=O)NCCCO
Result: false

Q: # lookup: test call for CC(=O)O[C@]1(C(C)=O)CC[C@H]2[C@@H]3C[C@H](C)C4=CC(=O)CC[C@]4(C)[C@H]3CC[C@@]21C
Result: false

Q: Returns: the outcome recorded for O=S1(=O)c2cccc3cccc(c23)N1CCCN1CCN(c2ccc(F)cc2)CC1 in this assay.
Result: false

Q: Which outcome was assigned to CNCC[C@@H](Oc1ccccc1C)c1ccccc1 in this test?
Result: false

Q: For this compound, state the assay outcome: CC1=C(C(=O)O)N2C(=O)[C@@H](NC(=O)[C@H](N)c3ccc(O)cc3)[C@H]2SC1
Result: false

Q: What classification did COC(=O)CCc1ccc(OCC(O)CNC(C)C)cc1 (configuration not stated) end up with in this test?
Result: false

Q: Answer briefly: the call reported for CCOc1ccc2nc3cc(N)ccc3c(N)c2c1 in this assay.
Result: true

Q: Hi, do you know how Cc1cc(=O)n(-c2ccccc2)n1C came out in this test?
Result: false

====

system: AS120; assay: qHTS profiling for inhibitors of Plasmodium falciparum proliferation (AID 504749); further: nearly all actives have a fitted effect of over 60% in size; conditions: P. falciparum in erythrocytes, SYBR Green DNA, 72 h; series mostly up to 28.7 µM
Inconclusive results are not listed. Active and inactive are the calls of the source. The call rests on the fitted dose curve; in most records, active means well fitted inhibition curve with a large enough effect; inconclusive means small, poorly fitted or top-dose-only effect; inactive means flat fitted curve, though single readings scatter.
Valid outcomes are listed here; reply with one: true (1) (active), false (0) (inactive)

O=C(O)CNC(=O)c1ccccc1 | false (0)
COc1ccc(/C=C/C(=O)c2ccc(OC)cc2OC)cc1 | true (1)
C[C@@H]1CN(CCCn2c3ccccc3c3ccccc32)C[C@H](C)N1 | true (1)
CCCCCCCCCCCCCCCC[N+](C)(C)CC | true (1)
C[C@@H](CN(C)C)CN1c2ccccc2Sc2ccccc21 | false (0)

Shifting focus to the molecule that follows.
Q: Per the records of this test, what outcome belongs to COc1c(C)c2c(c(O)c1C/C=C(\C)CCC(=O)O)C(=O)OC2 ?
Result: true (1)

====

assay: qHTS for differential inhibitors of proliferation of Plasmodium falciparum line Dd2 (AID 1882); details: Plasmodium falciparum Dd2 proliferation inhibition; series mostly up to 28.7 µM; further: nearly all actives have a fitted effect of over 65% in size
Records with an inconclusive call do not appear. Activity calls are given as the source filed them. The call rests on the fitted dose curve; in most records, active means well fitted inhibition curve with a large enough effect; inconclusive means small, poorly fitted or top-dose-only effect; inactive means flat fitted curve, though single readings scatter.
Your response should consist of one outcome taken from active, inactive

For orientation, consider the following solved cases.
CC(C)COC(=O)OCN1C(=O)CN(CCN2CC(=O)N(COC(=O)OCC(C)C)C(=O)C2)CC1=O | inactive
COc1cc(-c2ccc(=O)[nH]n2)ccc1OC(F)F | inactive
C[N+]1(CCCCC[N+]2(C)CCCC2)CCCC1 | inactive
CCC(NC(C)C)C(O)c1ccc(O)c(O)c1 (stereo not drawn) | active
COc1cc(NS(C)(=O)=O)ccc1Nc1c2ccccc2nc2ccccc12 | active
N[C@@H](Cc1cnc[nH]1)C(=O)O | inactive

Q: Short answer needed: outcome of this test for CN=C(NC#N)Nc1ccc(C2=NNC(=O)CC2C)cc1 (stereo not drawn) ?
Result: inactive

Q: Field: outcome | Entry: CC(C)NC[C@@H](O)COc1cccc2ccccc12
Result: active

Q: Given CCCn1c(=O)[nH]c(=O)c2[nH]cnc21 , state the outcome it received in this test.
Result: inactive

Q: // return assay outcome for CC1(C)CCC(NC(=O)[C@@H](N)CCC(=O)O)CC1
Result: inactive

Q: State the result this test recorded for Nc1cc(Cl)c(NC2=NCCN2)c(Cl)c1 .
Result: inactive

Q: Test call for this compound, please: C1CCc2nnnn2CC1
Result: inactive

Q: Check the results log: what was the call for O=C1CCC(c2ccc(-n3ccnc3)cc2)=NN1 ?
Result: inactive

====

experiment: Cell Viability - HepG2 (AID 433); conditions: qHTS;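 further: potency means the concentration at half of the fitted maximal effect; cells exposed to compound for 40 hours; potency for ATP loss meaning cytotoxicity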
Records with an inconclusive call do not appear. Calls of active or inactive are those of the source. Calls follow the shape of the full dose curve. Numbered stars: 1 amine (or outer) side, 2 acyl side, 3 side chain; on linkers, the order of the positions; unused ones are H or OH. Bridge positions count the residues as written; N and C are the ends. Square brackets hold non-standard residues; d marks the D form. Peptide text beside a SMILES is read from it. I, II: the chains in the order shown. Actinocin(9to1) = Cc1c2oc3c(C)ccc(C(=O)[*:1])c3nc-2c(C(=O)[*:2])c(N)c1=O; NMeV = CN[C@H](C(=O)O)C(C)C; Sar = CNCC(=O)O
Recorded Potency for the following compounds

CC(=O)Oc1ccc(C(c2ccc(OC(C)=O)cc2)c2ccccn2)cc1 | > 92 µM (inactive)
Cc1c2oc3c(C)ccc(C(=O)N[C@@H]4C(=O)N[C@H](C(C)C)C(=O)N5CCC[C@H]5C(=O)N(C)CC(=O)N(C)[C@@H](C(C)C)C(=O)O[C@@H]4C)c3nc-2c(C(=O)N[C@@H]2C(=O)N[C@H](C(C)C)C(=O)N3CCC[C@H]3C(=O)N(C)CC(=O)N(C)[C@@H](C(C)C)C(=O)O[C@@H]2C)c(N)c1=O (I: T[dV]P[Sar][NMeV] / II: T[dV]P[Sar][NMeV]; ester I:1-I:C, II:1-II:C; linker I:N-II:N via Actinocin(9to1)) | > 92 µM (inactive)
CCCCCCc1ccc(O)cc1O | > 92 µM (inactive)
CC/C(=C(/CC)c1ccc(O)cc1)c1ccc(O)cc1 | > 92 µM (inactive)
Oc1c(Cl)cc(Cl)cc1Sc1cc(Cl)cc(Cl)c1O | 27.9 µM (active)

Q: Which Potency is listed for NC(=NCCCCCCN=C(N)/N=C(\N)Nc1ccc(Cl)cc1)/N=C(\N)Nc1ccc(Cl)cc1 ?
Result: 39.6 µM (active)

Q: I would be grateful if you could share the reported Potency for O=c1ccc2ccccc2o1 .
Result: > 92 µM (inactive)

====

system: astro; assay: Drug repurposing screens with cells derived from glioblastoma tumor samples (AID 1345199); conditions: viability, ATP luminescence, 48 h; series mostly up to 45.9 µM; further: nearly all actives have a fitted effect of over 40% in size
Results filed as inconclusive are left out. The source made the active and inactive calls. Calls come from the whole dose curve; as a rule, active = well fitted inhibition curve with a large enough effect; inconclusive = small, poorly fitted or top-dose-only effect; inactive = flat fitted curve, though single readings scatter.
Your answer must be one of the following: active, inactive

Answered cases to consult:
NC(CS)C(=O)O (stereo not given) | inactive
Cc1cccc(C)c1NC(=O)CN1CCN(CCCC(c2ccc(F)cc2)c2ccc(F)cc2)CC1 | inactive
CCCC(=O)O[C@]1(C(=O)CO)CC[C@H]2[C@@H]3CCC4=CC(=O)CC[C@]4(C)[C@H]3[C@@H](O)C[C@@]21C | inactive
C[C@H](CCC(=O)O)[C@H]1CC[C@H]2[C@@H]3C(=O)C[C@@H]4CC(=O)CC[C@]4(C)[C@H]3CC(=O)[C@]12C | inactive
CC(=O)Oc1ccc(C(=C2CCCCC2)c2ccc(OC(C)=O)cc2)cc1 | inactive
C#C[C@]1(O)CC[C@H]2[C@@H]3CCc4cc(OC5CCCC5)ccc4[C@H]3CC[C@@]21C | active

Q: Answer briefly: the call reported for CCCCC(CC)CN=C(N)NC(N)=NCCCCCCN=C(N)NC(N)=NCC(CC)CCCC (stereo not given) in this assay.
Result: active

Q: Test call for this molecule, please: CCN(CC)CCNC(=O)COc1ccc(Cl)cc1
Result: inactive

Q: Which outcome was assigned to CN(C/C=C/c1ccccc1)Cc1cccc2ccccc12 in this test?
Result: inactive

Q: Write down the call the test reported for this molecule. Item: Cc1c(F)c(N2CCNC(C)C2)cc2c1c(=O)c(C(=O)O)cn2C1CC1 (stereo not given)
Result: inactive

====

Assay: Cell Viability - MRC5 (AID 434);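 further: potency means the concentration at half of the fitted maximal effect; cells exposed to compound for 40 hours at 37 °C; potency reflects cytotoxicity seen as loss of intracellular ATP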
Details: MRC5 lung fibroblast viability, qHTS
Text: NIH Chemical Genomics Center [NCGC] NIH Molecular Libraries Screening Centers Network [MLSCN] National Institutes of Environmental Health Sciences [NIEHS] National Toxicology Program [NTP] We have developed a 1536-well cell-based assay for quantitative high throughput screening (qHTS) against a number of cell lines to determine in vitro cytotoxicity of small molecules. […] 8. Detection; Luminescence; Viewlux plate reader […]
Records with an inconclusive call do not appear. The source made the active and inactive calls. The call rests on the fitted dose curve. Numbered stars: 1 amine (or outer) side, 2 acyl side, 3 side chain; on linkers, the order of the positions; unused ones are H or OH. Bridge positions count the residues as written; N and C are the ends. Square brackets hold non-standard residues; d marks the D form. Peptide text beside a SMILES is read from it. I, II: the chains in the order shown. Actinocin(9to1) = Cc1c2oc3c(C)ccc(C(=O)[*:1])c3nc-2c(C(=O)[*:2])c(N)c1=O; NMeV = CN[C@H](C(=O)O)C(C)C; Sar = CNCC(=O)O
Bench note: report the call from active, inactive

Reference set (3 entries):
CC(=O)O[C@]1(C(C)=O)CC[C@H]2[C@@H]3C[C@H](C)C4=CC(=O)CC[C@]4(C)[C@H]3CC[C@@]21C | inactive
Cc1c2oc3c(C)ccc(C(=O)N[C@@H]4C(=O)N[C@H](C(C)C)C(=O)N5CCC[C@H]5C(=O)N(C)CC(=O)N(C)[C@@H](C(C)C)C(=O)O[C@@H]4C)c3nc-2c(C(=O)N[C@@H]2C(=O)N[C@H](C(C)C)C(=O)N3CCC[C@H]3C(=O)N(C)CC(=O)N(C)[C@@H](C(C)C)C(=O)O[C@@H]2C)c(N)c1=O (I: T[dV]P[Sar][NMeV] / II: T[dV]P[Sar][NMeV]; ester I:1-I:C, II:1-II:C; linker I:N-II:N via Actinocin(9to1)) | inactive
O=c1ccc2ccccc2o1 | inactive

Q: Hi, sorry to bother you, what did the test record for C[C@]12CC[C@@H]3c4ccc(O)cc4CC[C@H]3[C@@H]1CC[C@@H]2O ?
Result: inactive

Q: # lookup: test call for CC(O)C(=O)O (configuration not stated)
Result: inactive

Q: For CC/C(=C(/CC)c1ccc(O)cc1)c1ccc(O)cc1 , which call appears in the assay record?
Result: inactive

Q: Fill in: this test's call for NC(=NCCCCCCN=C(N)/N=C(\N)Nc1ccc(Cl)cc1)/N=C(\N)Nc1ccc(Cl)cc1 is ___
Result: active

Data provenance is PubChem BioAssay (NCATS).
